test system: UACC-257 melanoma; test: NCI-60 one-dose screen, 48 h (100 = growth as untreated, 0 = no growth, -100 = all killed); conditions: 10 µM unless noted
Compounds without any hit were thinned out: in the full panel of roughly 83,000, 20% have a hit.
Here, each record is paired with measured growth data.
Give the value, in units of %, as a plain number.

INSERT INTO measurements (molecule, observed) VALUES
  ('CNC(=O)NCC1OC(n2cnc3c(NC(=O)Nc4ccccc4)ncnc32)C(O[Si](C)(C)C(C)(C)C)C1O[Si](C)(C)C(C)(C)C (stereo not drawn)', 42.8),
  ('CN1CCN(c2ccc3nc(-c4cc(C(C)(C)C)c(O)c(C(C)(C)C)c4)[nH]c3c2)CC1', -53.2),
  ('CSc1nc(O)c(-c2ccccc2)c(=O)[nH]1', 101);

Endpoint output: growth of Cc1ccccc1C(c1ccccc1)c1ccccc1C . Value?
71.3

Endpoint output: growth of COc1cc(NCCCN(CC(C)C)C2CCCC2)c2ncccc2c1 . Value?
89.4

Endpoint output: growth of O=C(Nc1nc2ccc(S(=O)(=O)Nc3ccc(C4(C(F)(F)F)CC4)cc3)cc2[nH]1)c1cnccn1 . Value?
48.5

Endpoint output: growth of CC1CCN(C(=O)OCc2nc3nc(Cl)nc(N4CCOCC4)c3[nH]2)CC1 . Value?
-89.7

Endpoint output: growth of C#CCNC(=O)[C@H](Cc1ccccc1)NC(=O)[C@]12CC[C@@H](C(=C)C)[C@@H]1[C@H]1CC[C@@H]3[C@@]4(C)Cc5c([nH]c6ccccc56)C(C)(C)[C@@H]4CC[C@@]3(C)[C@]1(C)CC2 . Value?
96.7

* * *

tested on: A498 renal; experiment: NCI-60 one-dose screen, 48 h (100 = growth as untreated, 0 = no growth, -100 = all killed); settings: 10 µM unless noted
About 83,000 compounds went through this panel and 20% of them were active in at least one assay; those are over-represented in the sample as a whole.
Kind request: treat 80% as inclusive, so growth at 80% or higher is TRUE, anything lower is FALSE.

INSERT INTO results (compound, experimental_system, class) VALUES
  ('COc1ccc(-c2nc(N/N=C/c3cccc(Br)c3)nc(N3CCOCC3)c2C#N)cc1', 'A498 renal', 'FALSE'),
  ('CCCCCCCCCCCCCCCC(=O)OC[C@@]1(O)C[C@@]23CC[C@@H]4C(C)(C)[C@H](O)CC[C@@]4(C)[C@@H]2CC[C@H]1C3', 'A498 renal', 'TRUE'),
  ('NC(=O)c1cccc(-c2cc(C(N)=O)ccc2Cl)c1', 'A498 renal', 'FALSE'),
  ('COc1cc(NCCCN(CC(C)C)C2CCCC2)c2ncccc2c1', 'A498 renal', 'FALSE'),
  ('CCOC(=O)c1cnc2c(cnn2CC)c1NN=C(C)C', 'A498 renal', 'FALSE');

Assess whether reported growth for CC1=CC[C@@H]2CC[C@]3(C)[C@H](CC[C@@H]4[C@@]5(C)CCCNC(C)(C)[C@@H]5CC[C@]43C)[C@H]2[C@@H]1C sits at 80% or higher.
FALSE

Assess whether reported growth for Fc1ccc(C2CC(c3cccc(Nc4ccncc4)c3)=NN2c2cc(Cl)cc(Cl)c2)cc1 (centres undefined) sits at 80% or higher.
TRUE

Assess whether reported growth for COc1ccc(C(O)c2cc3c(N)c(C(=O)Nc4ccc(Cl)cc4)sc3nc2C)cc1 (centres undefined) sits at 80% or higher.
FALSE

Assess whether reported growth for O=C(O)c1ccc[n+](CC(=O)N2CCN(c3cc4c(cc3F)c(=O)c(C(=O)O)cn4C3CC3)CC2)c1 sits at 80% or higher.
TRUE

Assess whether reported growth for CN1C(=O)N(C)[C@H]2NC(NN)=N[C@H]21 sits at 80% or higher.
TRUE

Assess whether reported growth for COc1ccc(C(=O)c2cc3c(N)c(C(=O)Nc4cccc5ccccc45)sc3nc2C)cc1 sits at 80% or higher.
FALSE

Assess whether reported growth for CN1CCN(CCCNc2nccc(-c3c(-c4ccc(F)c(O)c4)nc4sccn34)n2)S1(=O)=O sits at 80% or higher.
TRUE

Assess whether reported growth for COc1cc(NCCN(CC(C)C)C2CCCC2)c2ncccc2c1 sits at 80% or higher.
FALSE

Assess whether reported growth for O=C(O)c1cn(C2CC2)c2cc(N3CCN(C(=O)C[n+]4cccc5ccccc54)CC3)c(F)cc2c1=O sits at 80% or higher.
TRUE

Assess whether reported growth for COc1ccc(Nc2nc(N)nc3c2CCc2occc2-3)cc1 sits at 80% or higher.
TRUE

Assess whether reported growth for COc1ccc(/C=N/NC(=O)c2cccc3cc[nH]c23)cc1O sits at 80% or higher.
FALSE

Assess whether reported growth for CCNC(=O)c1[nH]cc(-c2ccc(OC)cc2)c1-c1cc(OC)c(OC)c(OC)c1 sits at 80% or higher.
FALSE
